# Assayed Target: FLT3 (Homo sapiens, UniProt P36888)
# Sequence (P36888 27-993): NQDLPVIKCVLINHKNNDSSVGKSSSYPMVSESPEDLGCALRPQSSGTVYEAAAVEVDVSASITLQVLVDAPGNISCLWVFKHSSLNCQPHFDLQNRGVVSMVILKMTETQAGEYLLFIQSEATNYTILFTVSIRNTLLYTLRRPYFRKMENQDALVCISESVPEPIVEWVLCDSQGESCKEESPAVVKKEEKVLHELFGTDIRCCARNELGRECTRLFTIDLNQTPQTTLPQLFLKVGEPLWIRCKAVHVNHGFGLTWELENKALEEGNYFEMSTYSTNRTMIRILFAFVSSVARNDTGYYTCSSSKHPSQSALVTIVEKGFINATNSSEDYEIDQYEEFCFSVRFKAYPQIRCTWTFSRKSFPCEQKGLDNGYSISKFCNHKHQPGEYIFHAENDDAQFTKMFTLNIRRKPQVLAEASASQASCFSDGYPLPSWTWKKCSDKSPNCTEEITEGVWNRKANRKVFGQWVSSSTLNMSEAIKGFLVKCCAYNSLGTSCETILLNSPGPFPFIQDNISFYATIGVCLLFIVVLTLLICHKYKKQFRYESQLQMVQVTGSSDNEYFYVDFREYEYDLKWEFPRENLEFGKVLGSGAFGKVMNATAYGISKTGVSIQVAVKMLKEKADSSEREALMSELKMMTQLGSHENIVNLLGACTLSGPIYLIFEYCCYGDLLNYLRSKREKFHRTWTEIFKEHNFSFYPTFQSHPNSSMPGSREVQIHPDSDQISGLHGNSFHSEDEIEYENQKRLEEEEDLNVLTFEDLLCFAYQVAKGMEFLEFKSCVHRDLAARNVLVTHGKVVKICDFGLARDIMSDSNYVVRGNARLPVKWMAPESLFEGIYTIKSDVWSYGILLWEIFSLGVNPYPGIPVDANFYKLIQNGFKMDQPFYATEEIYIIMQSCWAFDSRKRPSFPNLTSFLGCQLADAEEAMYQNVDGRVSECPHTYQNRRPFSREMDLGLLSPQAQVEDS
pIC50: −log10 of the molar value.
Readout Kind: pIC50

>>> print(df.to_string())
                           substance_smiles  endpoint_value
0  COc1ccc2[nH]c3c4[nH]c5ccc(OC)cc5c4c4c(c3c2c1)C(=O)NC4=O            7.43

* * *

# Assayed Target: RPS6KA6/RSK4 (Homo sapiens, UniProt Q9UK32)
# Sequence (Q9UK32 whole entry): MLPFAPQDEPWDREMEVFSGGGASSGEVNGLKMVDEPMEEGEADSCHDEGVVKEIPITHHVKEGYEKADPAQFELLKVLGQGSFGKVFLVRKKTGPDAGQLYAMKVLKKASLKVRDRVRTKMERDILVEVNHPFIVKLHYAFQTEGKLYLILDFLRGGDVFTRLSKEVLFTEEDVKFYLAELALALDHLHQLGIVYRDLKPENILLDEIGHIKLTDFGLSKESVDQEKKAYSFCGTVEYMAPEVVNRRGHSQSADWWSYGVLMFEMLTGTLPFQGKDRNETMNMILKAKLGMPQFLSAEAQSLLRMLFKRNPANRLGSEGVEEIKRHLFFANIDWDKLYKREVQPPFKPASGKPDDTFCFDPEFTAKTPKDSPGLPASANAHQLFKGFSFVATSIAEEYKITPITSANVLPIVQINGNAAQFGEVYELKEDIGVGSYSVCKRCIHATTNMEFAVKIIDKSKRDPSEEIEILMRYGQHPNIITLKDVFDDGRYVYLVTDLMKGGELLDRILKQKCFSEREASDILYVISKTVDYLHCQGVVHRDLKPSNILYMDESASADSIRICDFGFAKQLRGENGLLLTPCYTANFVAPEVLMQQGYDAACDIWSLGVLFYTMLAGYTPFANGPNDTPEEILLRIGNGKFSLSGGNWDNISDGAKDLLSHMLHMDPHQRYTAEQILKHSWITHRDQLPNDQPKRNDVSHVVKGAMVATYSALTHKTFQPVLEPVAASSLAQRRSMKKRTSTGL
# Assay Info: Eurofins kinase enzymatic radiometric assay
# Test Parameters: Km of ATP, 9-point curve in duplicate
Readout Kind: IC50 (nM)

>>> print(df.to_string())
                           substance_smiles  endpoint_value
0  COc1ccc2[nH]c3c4[nH]c5ccc(OC)cc5c4c4c(c3c2c1)C(=O)NC4=O              12

* * *

# Assayed Target: AURKB (Homo sapiens)
# Sequence (Q96GD4 whole entry): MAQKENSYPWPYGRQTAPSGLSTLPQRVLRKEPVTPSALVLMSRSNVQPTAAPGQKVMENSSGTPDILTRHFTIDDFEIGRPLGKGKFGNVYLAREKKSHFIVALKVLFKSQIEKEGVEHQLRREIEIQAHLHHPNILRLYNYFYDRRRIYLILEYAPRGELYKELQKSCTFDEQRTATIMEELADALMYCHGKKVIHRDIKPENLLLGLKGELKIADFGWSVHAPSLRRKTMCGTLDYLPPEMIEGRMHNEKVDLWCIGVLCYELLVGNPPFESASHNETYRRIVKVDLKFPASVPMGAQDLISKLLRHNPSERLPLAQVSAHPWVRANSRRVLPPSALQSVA
pIC50: −log10 of the molar value.
Readout Kind: pIC50

In [3]: df
Out[3]:
                                   compound  readout_kind  endpoint_value
0  COc1ccc2[nH]c3c4[nH]c5ccc(OC)cc5c4c4c(c3c2c1)C(=O)NC4=O [GW296115]         pIC50            7.03

* * *

# Assayed Target: CHEK2 (Homo sapiens)
# Sequence (O96017 whole entry): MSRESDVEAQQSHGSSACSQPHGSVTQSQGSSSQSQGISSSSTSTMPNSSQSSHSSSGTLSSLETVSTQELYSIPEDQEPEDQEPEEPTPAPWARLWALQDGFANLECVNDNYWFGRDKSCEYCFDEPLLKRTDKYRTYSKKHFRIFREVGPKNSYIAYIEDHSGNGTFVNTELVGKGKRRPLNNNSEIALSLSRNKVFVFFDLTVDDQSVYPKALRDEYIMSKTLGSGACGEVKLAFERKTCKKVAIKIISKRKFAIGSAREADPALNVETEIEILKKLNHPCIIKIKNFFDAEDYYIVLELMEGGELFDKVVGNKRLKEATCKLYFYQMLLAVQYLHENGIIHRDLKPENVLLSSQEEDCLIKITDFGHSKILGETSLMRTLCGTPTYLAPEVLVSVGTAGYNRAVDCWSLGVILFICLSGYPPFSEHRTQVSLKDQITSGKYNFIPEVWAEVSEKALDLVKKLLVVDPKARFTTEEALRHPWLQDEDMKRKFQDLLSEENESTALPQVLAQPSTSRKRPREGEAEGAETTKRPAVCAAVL
pIC50: −log10 of the molar value.
Readout Kind: pIC50

In [3]: df
Out[3]:
                           substance_smiles  readout_kind  endpoint_value
0  COc1ccc2[nH]c3c4[nH]c5ccc(OC)cc5c4c4c(c3c2c1)C(=O)NC4=O         pIC50            8.59

* * *

# Assayed Target: MYLK/MLCK/smMLCK (Homo sapiens)
# Assay Info: Eurofins kinase enzymatic radiometric assay
# Test Parameters: Km of ATP, 9-point curve in duplicate
# Text: Due to our interest in the activity of GW296115 on several understudied IDG kinases, we collected full dose–response curves for all wild type kinases inhibited ≥ 75% in the DiscoverX panel that were offered by Eurofins. Having data in orthogonal formats is a powerful way to confirm inhibitory activity and adds rigor to our results. […]
pIC50: −log10 of the molar value.
Readout Kind: pIC50

                           substance_smiles                   assayed_target  readout_kind  endpoint_value
0  COc1ccc2[nH]c3c4[nH]c5ccc(OC)cc5c4c4c(c3c2c1)C(=O)NC4=O  MYLK/MLCK/smMLCK (Homo sapiens)         pIC50            7.31

* * *

# Assayed Target: NLuc-BRSK2 in HEK293 cells (Homo sapiens)
# Construct: host or cells: HEK293
# Sequence (Q8IWQ3 whole entry): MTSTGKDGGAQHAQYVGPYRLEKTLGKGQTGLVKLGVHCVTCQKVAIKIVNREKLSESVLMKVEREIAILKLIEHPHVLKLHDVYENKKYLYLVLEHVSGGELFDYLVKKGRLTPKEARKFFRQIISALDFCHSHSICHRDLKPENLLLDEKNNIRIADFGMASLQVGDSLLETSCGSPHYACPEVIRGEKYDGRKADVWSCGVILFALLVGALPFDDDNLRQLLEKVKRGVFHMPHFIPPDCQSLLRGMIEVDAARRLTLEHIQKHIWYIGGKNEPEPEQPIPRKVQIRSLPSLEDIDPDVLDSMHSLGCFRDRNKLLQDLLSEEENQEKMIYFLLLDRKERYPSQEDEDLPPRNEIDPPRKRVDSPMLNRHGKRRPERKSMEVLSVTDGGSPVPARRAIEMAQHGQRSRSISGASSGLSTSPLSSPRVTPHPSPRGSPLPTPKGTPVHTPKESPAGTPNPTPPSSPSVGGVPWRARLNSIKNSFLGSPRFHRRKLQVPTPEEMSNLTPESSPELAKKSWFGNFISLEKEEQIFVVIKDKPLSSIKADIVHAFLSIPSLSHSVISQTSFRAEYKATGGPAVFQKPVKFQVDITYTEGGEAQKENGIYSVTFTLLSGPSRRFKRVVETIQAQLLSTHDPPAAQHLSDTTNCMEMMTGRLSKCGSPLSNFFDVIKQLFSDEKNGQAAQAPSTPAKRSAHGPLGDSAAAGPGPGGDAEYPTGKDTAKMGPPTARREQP
# Assay Info: BRSK2 NanoBRET cellular target engagement assay
# Type: cell-based
# Test Parameters: BRSK2 NanoBRET data IC50 (nM), HEK293 cells transiently expressing NLuc-BRSK2; Tracer K5 1 μM; N = 3
Readout Kind: IC50 (nM)

In [3]: df
Out[3]:
                                   compound                            assayed_target  readout_kind  result_unit  endpoint_value
0  O=C1NCc2c1c1c3ccccc3[nH]c1c1[nH]c3ccccc3c21 [K-252c]  NLuc-BRSK2 in HEK293 cells (Homo sapiens)          IC50           nM             308

* * *

# Assayed Target: MAP2K5/MEK5 (Homo sapiens, UniProt Q13163)
# Sequence (Q13163 whole entry): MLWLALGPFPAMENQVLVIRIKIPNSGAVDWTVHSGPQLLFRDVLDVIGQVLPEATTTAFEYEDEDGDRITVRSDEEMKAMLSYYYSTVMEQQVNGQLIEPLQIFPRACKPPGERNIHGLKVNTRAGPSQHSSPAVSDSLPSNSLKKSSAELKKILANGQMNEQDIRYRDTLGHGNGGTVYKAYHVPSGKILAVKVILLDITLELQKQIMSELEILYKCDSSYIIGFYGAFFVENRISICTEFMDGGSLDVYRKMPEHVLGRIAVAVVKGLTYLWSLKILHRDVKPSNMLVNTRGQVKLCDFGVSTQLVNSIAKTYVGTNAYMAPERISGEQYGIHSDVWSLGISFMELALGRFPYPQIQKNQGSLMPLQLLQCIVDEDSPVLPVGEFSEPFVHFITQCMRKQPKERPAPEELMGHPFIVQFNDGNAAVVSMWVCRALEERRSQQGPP
# Assay Info: Eurofins kinase enzymatic LANCE assay
Readout Kind: IC50

>>> print(df.to_string())
                           substance_smiles  readout_kind  endpoint_value
0  COc1ccc2[nH]c3c4[nH]c5ccc(OC)cc5c4c4c(c3c2c1)C(=O)NC4=O          IC50         > 10 µM

* * *

# Assayed Target: MAP3K11/MLK3 (Homo sapiens, UniProt Q16584)
# Sequence (Q16584 whole entry): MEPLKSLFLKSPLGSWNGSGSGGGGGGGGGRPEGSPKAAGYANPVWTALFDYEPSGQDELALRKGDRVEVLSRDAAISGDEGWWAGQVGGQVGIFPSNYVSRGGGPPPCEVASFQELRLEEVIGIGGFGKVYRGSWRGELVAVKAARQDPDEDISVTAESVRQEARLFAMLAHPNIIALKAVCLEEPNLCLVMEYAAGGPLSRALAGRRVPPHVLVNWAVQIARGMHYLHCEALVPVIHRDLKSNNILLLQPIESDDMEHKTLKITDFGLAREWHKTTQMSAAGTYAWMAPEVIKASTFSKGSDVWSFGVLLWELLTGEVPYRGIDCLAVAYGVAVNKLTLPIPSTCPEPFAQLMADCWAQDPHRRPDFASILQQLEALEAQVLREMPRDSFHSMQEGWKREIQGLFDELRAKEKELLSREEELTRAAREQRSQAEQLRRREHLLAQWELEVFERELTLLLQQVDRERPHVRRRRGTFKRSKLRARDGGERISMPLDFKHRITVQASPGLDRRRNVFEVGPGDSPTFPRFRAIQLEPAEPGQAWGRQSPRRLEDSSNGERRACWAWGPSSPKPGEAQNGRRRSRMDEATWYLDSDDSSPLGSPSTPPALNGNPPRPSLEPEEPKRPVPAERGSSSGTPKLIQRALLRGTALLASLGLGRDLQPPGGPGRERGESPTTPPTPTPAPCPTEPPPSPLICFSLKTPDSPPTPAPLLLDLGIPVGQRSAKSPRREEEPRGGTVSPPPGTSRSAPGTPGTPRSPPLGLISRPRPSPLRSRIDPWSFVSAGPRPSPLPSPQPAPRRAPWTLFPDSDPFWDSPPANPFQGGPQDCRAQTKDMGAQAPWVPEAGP
# Assay Info: Eurofins kinase enzymatic radiometric assay
# Test Parameters: Km of ATP, 9-point curve in duplicate
pIC50: −log10 of the molar value.
Readout Kind: pIC50

>>> print(df.to_string())
                           substance_smiles  readout_kind  endpoint_value
0  COc1ccc2[nH]c3c4[nH]c5ccc(OC)cc5c4c4c(c3c2c1)C(=O)NC4=O         pIC50            8.82

* * *

Entries annotated with measured IC50
# Assayed Target: NLuc-BRSK2 in HEK293 cells (Homo sapiens)
# Construct: host or cells: HEK293
# Assay Info: BRSK2 NanoBRET cellular target engagement assay
# Type: cell-based
# Test Parameters: HEK293 cells transiently expressing NLuc-BRSK2; Tracer K5 1 μM; N = 3; read-out: BRSK2 NanoBRET data IC50
Readout Kind: IC50 (nM)

>>> df
                                   compound                            assayed_target  result_unit  endpoint_value
0  O=C1NC(=O)c2c1c1c3ccccc3[nH]c1c1[nH]c3cc(Br)ccc3c21 [CDK4 inhibitor]  NLuc-BRSK2 in HEK293 cells (Homo sapiens)           nM            1330
1  Cn1c2ccccc2c2c3c(c4c5ccccc5n(CCC#N)c4c21)CNC3=O [Gö 6976]  NLuc-BRSK2 in HEK293 cells (Homo sapiens)           nM             914
2  O=C1NC(=O)c2c1c1c3ccccc3n3c1c1c2c2ccccc2n1C1CCC3O1 [SB 218078]  NLuc-BRSK2 in HEK293 cells (Homo sapiens)           nM             883
